target: human renal renin (Homo sapiens); construct: from tissue; host or cells: human kidney (read from the word 'renal'; no preparation is printed); test: Inhibition of human renal renin in vitro (angiotensin I formation by radioimmunoassay); type: biochemical; conditions: human renal renin, 37 degrees C, pH 6.0; read-out: IC50
Sequence (P00797 67-406): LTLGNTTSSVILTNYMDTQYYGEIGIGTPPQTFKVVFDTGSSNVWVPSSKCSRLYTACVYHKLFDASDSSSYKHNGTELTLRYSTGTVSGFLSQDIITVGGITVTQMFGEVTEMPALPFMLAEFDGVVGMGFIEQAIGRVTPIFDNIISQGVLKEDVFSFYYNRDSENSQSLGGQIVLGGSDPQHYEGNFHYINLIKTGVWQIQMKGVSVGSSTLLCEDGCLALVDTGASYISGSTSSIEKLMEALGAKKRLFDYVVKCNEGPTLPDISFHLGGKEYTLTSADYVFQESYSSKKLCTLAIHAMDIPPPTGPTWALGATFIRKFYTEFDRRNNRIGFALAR
One threshold, 2 nM, splits the recorded IC50 values: lower ones are met, equal or higher ones are not met.

Field: below-cutoff. Rule: recorded IC50 strictly less than 2 nM. Subject: CCCC[C@H](O[C@@H](Cc1ccccc1)C(=O)N1CCC(OCOC)CC1)C(=O)N[C@@H](CC1CCCCC1)[C@@H](O)C[C@H](C(=O)NCCCN(C)C)C(C)C [Example 117]
not met

Field: below-cutoff. Rule: recorded IC50 strictly less than 2 nM. Subject: CCCCC(=O)N[C@@H](C[C@H](O)[C@H](CC1CCCCC1)NC(=O)[C@H](CCCC)O[C@@H](Cc1ccccc1)C(=O)N1CCC(OCOC)CC1)C(C)C [Example 132]
not met

Field: below-cutoff. Rule: recorded IC50 strictly less than 2 nM. Subject: CCCC[C@H](O[C@@H](Cc1ccccc1)C(=O)N1CCC(OCOC)CC1)C(=O)N[C@@H](CC1CCCCC1)[C@@H](O)C[C@H](C(=O)NCCCn1ccnc1)C(C)C [Example 116]
met

Field: below-cutoff. Rule: recorded IC50 strictly less than 2 nM. Subject: CC(C)C[C@H](O)[C@H](O)[C@H](CC1CCCCC1)NC(=O)[C@H](C)O[C@@H](Cc1ccccc1)C(=O)N1CCC1 [Example 87]
not met

Field: below-cutoff. Rule: recorded IC50 strictly less than 2 nM. Subject: CCCC[C@H](O[C@@H](Cc1ccccc1)C(=O)N1CCC(OCOC)CC1)C(=O)N[C@@H](CC(C)C)[C@@H](O)CC(=O)NCC(C)CC (some centres unmarked) [Example 180]
not met

Field: below-cutoff. Rule: recorded IC50 strictly less than 2 nM. Subject: CCCC[C@H](O[C@@H](Cc1ccccc1)C(=O)N1CCC(OCOC)CC1)C(=O)N[C@@H](CC1CCCCC1)[C@@H](O)C[C@H](NC(=O)OCCc1ccccn1)C(C)C [Example 131]
met

Field: below-cutoff. Rule: recorded IC50 strictly less than 2 nM. Subject: CCCCNC(=O)[C@@H](C[C@H](O)[C@H](CC1CCCCC1)NC(=O)[C@H](CCCC)O[C@@H](Cc1ccccc1)C(=O)N1CCC(OCOC)CC1)C(C)C [Example 96]
met

Field: below-cutoff. Rule: recorded IC50 strictly less than 2 nM. Subject: CCCC[C@H](O[C@@H](Cc1ccccc1)C(=O)N1CCC(OCOC)CC1)C(=O)N[C@@H](CC1CCCCC1)[C@@H](O)C[C@H](C(=O)NCCCN1CCOCC1)C(C)C [Example 118]
met
